Value source: patent US20250250357A1

Target: T1, human MSLN-R3-his protein (human, UniProt Q13421 487-598)
T1 construct: Self-made in HEK293E cells; also called human MSLN-R3 protein; hMSLN-R3-his; not shown: His tag
T1 sequence (Q13421 495-606): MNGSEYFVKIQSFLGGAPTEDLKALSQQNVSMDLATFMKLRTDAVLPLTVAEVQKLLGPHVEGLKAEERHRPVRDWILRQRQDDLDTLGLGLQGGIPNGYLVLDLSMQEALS
Test: ELISA on coated antigen, antibody 100 nM
RESULT TYPE: OD450

# example entries with known answers
BINDER	OD450
S009-F2.13.3 (antibody, human IgG1, kappa, V domains shown, Human-murine chimeric antibody: murine VH/VL on human IgG1 heavy and kappa light constant regions) VH: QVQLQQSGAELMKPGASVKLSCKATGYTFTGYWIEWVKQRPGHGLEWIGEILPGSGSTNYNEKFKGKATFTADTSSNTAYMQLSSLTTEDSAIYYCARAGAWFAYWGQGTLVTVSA VL: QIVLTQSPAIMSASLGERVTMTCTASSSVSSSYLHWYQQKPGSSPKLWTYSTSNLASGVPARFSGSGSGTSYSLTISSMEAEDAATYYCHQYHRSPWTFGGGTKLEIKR	0.06 OD450
S009-F2.23.12 (antibody, human IgG1, kappa, V domains shown, Human-murine chimeric antibody: murine VH/VL on human IgG1 heavy and kappa light constant regions) VH: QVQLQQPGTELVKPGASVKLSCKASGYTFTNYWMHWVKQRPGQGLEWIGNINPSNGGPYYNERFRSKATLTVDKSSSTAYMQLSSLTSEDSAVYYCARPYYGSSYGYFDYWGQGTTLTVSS VL: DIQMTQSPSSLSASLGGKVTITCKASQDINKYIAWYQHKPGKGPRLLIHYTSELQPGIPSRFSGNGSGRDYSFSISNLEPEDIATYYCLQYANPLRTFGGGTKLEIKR	2.08 OD450

Pending binder:
Can you look up the measured OD450 of S009-F2.21.4 (antibody, human IgG1, kappa, V domains shown, Human-murine chimeric antibody: murine VH/VL on human IgG1 heavy and kappa light constant regions) VH: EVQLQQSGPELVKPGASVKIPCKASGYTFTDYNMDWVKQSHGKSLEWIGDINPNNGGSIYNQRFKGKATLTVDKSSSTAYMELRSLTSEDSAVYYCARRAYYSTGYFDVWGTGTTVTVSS VL: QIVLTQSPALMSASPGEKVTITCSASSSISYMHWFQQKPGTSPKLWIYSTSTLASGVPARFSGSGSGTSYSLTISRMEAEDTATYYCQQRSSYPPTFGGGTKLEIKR for me?
0.06 OD450
